# TESTED TARGET: Recombinant human IKKβ (residues 1-737) (IKK2) (Homo sapiens, UniProt O14920)
# Construct: Recombinant human IKKβ (residues 1-737) was expressed in baculovirus; GST (C); made in house
# Sequence (O14920 1-737): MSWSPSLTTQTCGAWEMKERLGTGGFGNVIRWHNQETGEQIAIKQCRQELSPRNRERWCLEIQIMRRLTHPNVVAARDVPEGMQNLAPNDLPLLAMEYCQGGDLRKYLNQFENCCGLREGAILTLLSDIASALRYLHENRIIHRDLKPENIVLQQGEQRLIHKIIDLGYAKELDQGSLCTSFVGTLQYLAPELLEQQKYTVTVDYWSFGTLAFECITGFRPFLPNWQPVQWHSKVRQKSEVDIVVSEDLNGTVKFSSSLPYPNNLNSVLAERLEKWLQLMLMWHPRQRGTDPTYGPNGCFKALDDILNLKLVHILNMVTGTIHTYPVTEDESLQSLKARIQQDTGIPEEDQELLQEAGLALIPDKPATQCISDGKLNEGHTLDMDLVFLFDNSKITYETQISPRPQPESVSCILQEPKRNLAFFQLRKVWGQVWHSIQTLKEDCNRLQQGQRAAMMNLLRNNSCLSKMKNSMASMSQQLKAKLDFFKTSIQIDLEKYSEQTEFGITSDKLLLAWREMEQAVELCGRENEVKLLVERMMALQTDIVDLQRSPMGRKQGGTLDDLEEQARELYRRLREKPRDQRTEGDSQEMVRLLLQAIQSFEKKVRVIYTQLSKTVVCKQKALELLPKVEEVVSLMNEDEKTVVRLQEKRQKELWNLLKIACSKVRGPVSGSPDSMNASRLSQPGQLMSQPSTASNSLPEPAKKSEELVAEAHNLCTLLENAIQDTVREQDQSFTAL
# ASSAY SUMMARY: IKK2 TR-FRET assay
# Format: biochemical
# DETAILS: IKK2 5 nM, GST-IκBα 25 nM, ATP 1 μM, 30 minutes at room temperature, read-out: pIC50 against IKK2 (converted)
VALUE KIND: IC50

So, `NC(=O)c1cc(-c2ccccc2)cc2c1cnn2C1CCN(C(=O)c2ccccc2)CC1` ? Its IC50 was ≤ 10 µM

compound `NC(=O)c1cc(-c2ccccc2)cc2c1cnn2C1CCNCC1` , IC50 observed: ≤ 10 µM

Reported IC50 of `NC(=O)c1cc(-c2ccccc2)cc2c1cnn2C1CCN(S(=O)(=O)c2ccccc2)CC1` : ≤ 10 µM

// recorded IC50 for `NC(=O)c1cc(-c2ccccc2)cc2c1cnn2C1CCN(S(=O)(=O)c2ccc(F)cc2)CC1` : ≤ 10 µM

Form field IC50, entry `CCS(=O)(=O)N1CCC(n2ncc3c(C(N)=O)cc(-c4ccccc4)cc32)CC1` : ≤ 10 µM

Quick note, IC50 for Cn1cnc(S(=O)(=O)N2CCCC(n3ncc4c(C(N)=O)cc(-c5ccccc5)cc43)C2)c1 (centres unmarked) landed at > 15.8 µM

Form: compound = NC(=O)c1cc(-c2ccccc2)cc2c1cnn2C1CCCN(S(=O)(=O)c2ccccc2)C1 (centres unmarked) ; IC50 = > 15.8 µM

In plain terms, NC(=O)c1cc(-c2ccccc2)cc2[nH]ncc12 [Example 3, 6-phenyl-1H-indazole-4-carboxamide] has a documented IC50 of ≤ 10 µM

###

# TESTED TARGET: Recombinant human IKKβ (residues 1-737) (IKK2) (Homo sapiens)
# Construct: Recombinant human IKKβ (residues 1-737) was expressed in baculovirus; GST (C); made in house
# Sequence (O14920 1-737): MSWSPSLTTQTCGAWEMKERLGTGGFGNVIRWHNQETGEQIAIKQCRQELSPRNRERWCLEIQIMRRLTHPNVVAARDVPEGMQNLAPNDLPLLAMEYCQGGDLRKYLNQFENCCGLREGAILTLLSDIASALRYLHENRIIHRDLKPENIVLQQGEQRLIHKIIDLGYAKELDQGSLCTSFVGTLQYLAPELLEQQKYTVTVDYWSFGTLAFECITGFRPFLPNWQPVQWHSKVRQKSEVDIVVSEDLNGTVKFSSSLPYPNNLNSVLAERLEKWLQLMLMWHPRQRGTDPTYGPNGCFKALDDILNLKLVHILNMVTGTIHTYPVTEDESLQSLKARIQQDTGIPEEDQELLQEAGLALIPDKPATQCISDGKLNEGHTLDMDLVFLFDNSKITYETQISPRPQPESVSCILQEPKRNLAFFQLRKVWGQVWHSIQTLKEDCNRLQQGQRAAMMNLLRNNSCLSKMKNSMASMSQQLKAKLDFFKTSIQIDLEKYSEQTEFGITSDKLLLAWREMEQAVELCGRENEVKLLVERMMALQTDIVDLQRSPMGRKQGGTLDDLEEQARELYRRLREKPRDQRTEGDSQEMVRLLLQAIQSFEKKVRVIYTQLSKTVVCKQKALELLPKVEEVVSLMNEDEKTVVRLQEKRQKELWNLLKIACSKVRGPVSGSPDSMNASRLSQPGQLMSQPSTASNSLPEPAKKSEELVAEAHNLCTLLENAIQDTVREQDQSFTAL
# ASSAY SUMMARY: IKK2 TR-FRET assay
# Type: biochemical
# DETAILS: IKK2 5 nM, GST-IκBα 25 nM, ATP 1 μM, 30 minutes at room temperature, read-out: pIC50 against IKK2 (converted)
Task for the reader: assign each of the following molecules its reported IC50.

Measured IC50, `CCC(=O)N1CCC(n2ncc3c(C(N)=O)cc(-c4ccccc4)cc32)CC1` : ≤ 10 µM

Form: molecule = CCS(=O)(=O)N1CCCC(n2ncc3c(C(N)=O)cc(-c4ccccc4)cc32)C1 (stereo not shown) ; IC50 = ≤ 10 µM

For reference, reported IC50 for CCC(=O)N1CCCC(n2ncc3c(C(N)=O)cc(-c4ccccc4)cc32)C1 (stereo not shown) stands at > 15.8 µM

Entry NC(=O)c1cc(-c2ccccc2)cc2c1cnn2C1CCCN(S(=O)(=O)c2ccc(F)cc2)C1 (stereo not shown) ; IC50 = > 15.8 µM
